Molecular target: T1, IL-1β (UniProt P01584 117-269)
T1 construct: Antigen of XPA23
Assay: Biacore, Fab periplasmic extract
Record form. Attribute: fold difference in affinity against the original. Fill in for each entry.
Respond numerically; units are fold and should not be typed.

# fold difference in affinity against the original of XPA23 heavy chain G55I (Fab, V domains shown, Fab, periplasmic extract; also called C5A G55I) VH: EVQLLESGGGLVQPGGSLRLSCAASGFTFSKYFMFWVRQAPGKGLEWVSVISPSIGMTRYADSVKGRFTISRDNSKNTLYLQMNSLRAEDTAVYYCARVGYGGNSDYWGQGTLVTVSS VL: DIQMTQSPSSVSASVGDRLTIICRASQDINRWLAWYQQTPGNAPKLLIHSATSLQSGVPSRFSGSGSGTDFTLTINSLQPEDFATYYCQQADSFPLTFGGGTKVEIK = 0.86

# fold difference in affinity against the original of XPA23 heavy chain F35G (Fab, V domains shown, Fab, periplasmic extract; also called C5A F35G) VH: EVQLLESGGGLVQPGGSLRLSCAASGFTFSKYFMGWVRQAPGKGLEWVSVISPSGGMTRYADSVKGRFTISRDNSKNTLYLQMNSLRAEDTAVYYCARVGYGGNSDYWGQGTLVTVSS VL: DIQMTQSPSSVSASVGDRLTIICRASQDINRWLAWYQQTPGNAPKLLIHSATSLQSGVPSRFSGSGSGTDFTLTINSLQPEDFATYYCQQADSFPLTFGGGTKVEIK = 0.04

# fold difference in affinity against the original of XPA23 heavy chain Y107A (Fab, V domains shown, Fab, periplasmic extract; also called C5A Y107A) VH: EVQLLESGGGLVQPGGSLRLSCAASGFTFSKYFMFWVRQAPGKGLEWVSVISPSGGMTRYADSVKGRFTISRDNSKNTLYLQMNSLRAEDTAVYYCARVGYGGNSDAWGQGTLVTVSS VL: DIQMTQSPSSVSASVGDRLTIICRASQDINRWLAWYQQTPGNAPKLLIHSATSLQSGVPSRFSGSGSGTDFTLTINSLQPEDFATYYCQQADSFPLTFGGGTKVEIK = 0.83

# fold difference in affinity against the original of XPA23 heavy chain R59G (Fab, V domains shown, Fab, periplasmic extract; also called C5A R59G) VH: EVQLLESGGGLVQPGGSLRLSCAASGFTFSKYFMFWVRQAPGKGLEWVSVISPSGGMTGYADSVKGRFTISRDNSKNTLYLQMNSLRAEDTAVYYCARVGYGGNSDYWGQGTLVTVSS VL: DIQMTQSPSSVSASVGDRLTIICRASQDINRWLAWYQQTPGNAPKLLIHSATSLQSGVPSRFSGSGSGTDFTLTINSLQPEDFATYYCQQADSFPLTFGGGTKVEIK = 1.04

# fold difference in affinity against the original of XPA23 heavy chain Y32V (Fab, V domains shown, Fab, periplasmic extract; also called C5A Y32V) VH: EVQLLESGGGLVQPGGSLRLSCAASGFTFSKVFMFWVRQAPGKGLEWVSVISPSGGMTRYADSVKGRFTISRDNSKNTLYLQMNSLRAEDTAVYYCARVGYGGNSDYWGQGTLVTVSS VL: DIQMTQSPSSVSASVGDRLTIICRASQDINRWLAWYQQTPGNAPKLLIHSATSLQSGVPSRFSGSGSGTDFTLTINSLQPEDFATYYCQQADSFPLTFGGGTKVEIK = 1.07
